- Measurement Protocol: Primary qHTS for inhibitors of nuclear receptor binding SET domain protein 2 (NSD2) in an isogenic RCH-ACV NSD2 p.E1099K mutant (9B) (AID 1645876); note: nearly all actives have a fitted effect of over 70% in size
- Test Conditions: RCH-ACV (leukaemia line) NSD2 E1099K (9B) viability, CellTiter-Glo, 72 h; series mostly up to 44.9 µM
Inconclusive results are not listed. Calls of active or inactive are those of the source. Calls come from the whole dose curve; as a rule, active = well fitted inhibition curve with a large enough effect; inconclusive = small, poorly fitted or top-dose-only effect; inactive = flat fitted curve, though single readings scatter.
Answer with one of the outcomes active, inactive

Please review the entries below; each comes with its answer.
| Molecule | Class Assignment |
| --- | --- |
| Nc1ccccc1C(=O)OCC(O)CO (stereo not given) | inactive |
| CCC(=O)OC1(c2ccccc2)CCN(C)CC1 | inactive |
| Nc1ccc(N)cc1 | inactive |
| CCN1CCCC1CNC(=O)C(O)(c1ccccc1)c1ccccc1 (stereo not given) | inactive |
| CN(C)CCc1c[nH]c2ccccc12 | inactive |

Task: Per the assay record, what outcome was assigned to O=C(CBr)Nc1ccc(Cl)cc1C(=O)c1ccccc1F ?
Result: inactive

Task: Try this molecule next: Cc1ccc(N=CN(C)C=Nc2ccc(C)cc2C)c(C)c1
Result: inactive

Task: What do we get for C=CCN1CC[C@]23CCCC[C@H]2[C@H]1Cc1ccc(O)cc13 ?
Result: inactive

Task: And the next one, CCCCCCCCCCCC[N+](C)(C)CCOc1ccccc1 ?
Result: active

Task: Continue with CC1=C2[C@H]3OC(=O)[C@@H](C)[C@@H]3CC[C@@]2(C)C=CC1=O
Result: inactive

Task: Similarly, CC(C)=CCN1CC[C@@]2(C)c3cc(O)ccc3C[C@@H]1[C@@H]2C ?
Result: active

Task: Again, but for CN1C[C@@H](NS(=O)(=O)N(C)C)C[C@@H]2c3cccc4c3c(cn4C)C[C@H]21
Result: inactive

Task: Item: CN(C)CCc1c[nH]c2ccc(O)cc12
Result: inactive

Task: Entry to check: C=CCOC(Cn1ccnc1)c1ccc(Cl)cc1Cl (stereo not given)
Result: active

Task: One more molecule: COc1cc(CC(C)N)c(OC)cc1Br (stereo not given)
Result: active

* * *

- Measurement Protocol: qHTS of pediatric cancer cell lines to identify multiple opportunities for drug repurposing: Primary screen for SK-N-SH cells (AID 1347098);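 note: DMSO served as neutral control and bortezomib at 2.3 µM as positive control; nearly all actives have a fitted effect of over 65% in size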
- Test Conditions: SK-N-SH viability, CellTiter-Glo luminescence, 48 h; series mostly up to 57 µM
- Experimental: Drug repurposing or repositioning has been offered as a strategy for drug development in oncology programs. […] [1] Shen, M et al. Quantitative high-throughput phenotypic screening of pediatric cancer cell lines identifies multiple opportunities for drug repurposing. […] Cells were assayed in growth media at a density of 500-1,000 cells/well. […] After a 15 min incubation at room temperature, samples were analyzed for luminescence intensity using a ViewLux High-throughput CCD imager equipped with clear filters.
Results filed as inconclusive are left out. Calls of active or inactive are those of the source. Calls come from the whole dose curve; as a rule, active = well fitted cell-killing curve with a large enough effect; inconclusive = small, poorly fitted or top-dose-only effect; inactive = no such curve, though single readings can be large or run the other way.
Valid outcomes are listed here; reply with one: 1 (yes) for active, 0 (no) for inactive

Example entries begin here.
| Compound | Class Assignment |
| --- | --- |
| C1CN2CCC1CC2 | 0 (no) |
| Cc1ncc2n1-c1ccc(Cl)cc1C(c1ccccc1F)=NC2 | 0 (no) |
| COCC(=O)N(c1c(C)cccc1C)C(C)C(=O)OC (configuration not stated) | 0 (no) |
| O=C(CCCN1CCC(n2c(=O)[nH]c3ccccc32)CC1)c1ccc(F)cc1 | 0 (no) |
| CNC(=O)NC(O)C(Cl)(Cl)Cl (configuration not stated) | 0 (no) |

Task: Tell me the recorded outcome of this test for OC(c1ccccc1)(c1ccccc1)C1CCNCC1 .
Result: 0 (no)

Task: Follow-up item: COc1cc(CC#N)cc(OC)c1OC
Result: 0 (no)

Task: Cool, now C[C@H]1CNCCc2ccc(Cl)cc21
Result: 0 (no)

Task: CCCOC(=O)Cc1ccc(OCC(=O)N(CC)CC)c(OC)c1 , same question.
Result: 0 (no)

Task: And then CC(Cc1ccccc1)NCc1ccccc1Cl (configuration not stated) , what is it?
Result: 0 (no)

Task: Proceed to CCC1(c2ccccc2)CCC(=O)NC1=O (configuration not stated)
Result: 0 (no)
